Tested on: Escherichia coli TOP10
ASSAY_DETAILS: shrunken log2 fold change of peptide-encoding DNA abundance (4.5 h post-induction vs induction); higher = less antimicrobial activity (less host growth inhibition)
CONDITION_PARAMETERS: time post-induction: 4.5 h; library: site-saturation at positions 5, 18, 19, 20
Catalogue of shrunken log2 fold change values
# print the numeric value only

[[record]]
sequence_entry = "RRIRERPPRLPRPRPRPKIPPRP"
experimental_readout = "shrunken log2 fold change"
number = -0.136


Consider the sequence `RRIRMRPPRLPRPRPRPRYYPRP` and give its measured shrunken log2 fold change.
-0.261

Repeat for the following sequence: `RRIRRRPPRLPRPRPRPFGTPRP`
0.0468

###

Tested on: Escherichia coli TOP10
ASSAY_DETAILS: shrunken log2 fold change of peptide-encoding DNA abundance (4.5 h post-induction vs induction); higher = less antimicrobial activity (less host growth inhibition)
CONDITION_PARAMETERS: time post-induction: 4.5 h; library: site-saturation at positions 5, 18, 19, 20
Category scheme (shrunken log2 fold change): lower (below -0.1), middle (-0.1 to below 0.08), upper (0.08 or more)

Check out these entries, answers already filled in.
[[record]]
sequence_entry = "RRIRIRPPRLPRPRPRPIPWPRP"
category = "lower"

[[record]]
sequence_entry = "RRIRSRPPRLPRPRPRPTYDPRP"
category = "lower"

[[record]]
sequence_entry = "RRIRDRPPRLPRPRPRPAQVPRP"
category = "lower"

[[record]]
sequence_entry = "RRIRNRPPRLPRPRPRPSEEPRP"
category = "middle"

[[record]]
sequence_entry = "RRIRLRPPRLPRPRPRPIKVPRP"
category = "lower"


Field: class (shrunken log2 fold change) — entry: `RRIRPRPPRLPRPRPRPWWYPRP`
lower

Repeat for the following sequence: `RRIRYRPPRLPRPRPRPWPIPRP`
middle

Repeat for the following sequence: `RRIRNRPPRLPRPRPRPRCWPRP`
upper

Repeat for the following sequence: `RRIRMRPPRLPRPRPRPEMDPRP`
upper

Repeat for the following sequence: `RRIRDRPPRLPRPRPRPTTEPRP`
upper

Repeat for the following sequence: `RRIRGRPPRLPRPRPRPKCYPRP`
upper

###

System: Escherichia coli TOP10
ASSAY_DETAILS: shrunken log2 fold change of peptide-encoding DNA abundance (4.5 h post-induction vs induction); higher = less antimicrobial activity (less host growth inhibition)
CONDITION_PARAMETERS: time post-induction: 4.5 h; library: site-saturation at positions 5, 18, 19, 20
Catalogue of shrunken log2 fold change values

Recorded results for 3 sequences are shown here.
[[record]]
sequence_entry = "RRIRERPPRLPRPRPRPNQDPRP"
experimental_readout = "shrunken log2 fold change"
result = 0.169

[[record]]
sequence_entry = "RRIRGRPPRLPRPRPRPHSIPRP"
experimental_readout = "shrunken log2 fold change"
result = 0.169

[[record]]
sequence_entry = "RRIRFRPPRLPRPRPRPLIMPRP"
experimental_readout = "shrunken log2 fold change"
result = -0.352


Consider the sequence `RRIRVRPPRLPRPRPRPEWPPRP` and give its measured shrunken log2 fold change.
0.225

Repeat for the following sequence: `RRIRWRPPRLPRPRPRPTNNPRP`
0.0375

Repeat for the following sequence: `RRIRFRPPRLPRPRPRPRKMPRP`
0.0208

Repeat for the following sequence: `RRIRVRPPRLPRPRPRPADIPRP`
-0.235

###

Test system: Escherichia coli TOP10
ASSAY_DETAILS: shrunken log2 fold change of peptide-encoding DNA abundance (4.5 h post-induction vs induction); higher = less antimicrobial activity (less host growth inhibition)
CONDITION_PARAMETERS: time post-induction: 4.5 h; library: site-saturation at positions 5, 18, 19, 20
Note to self: values exactly at -0.0003 are 1. So shrunken log2 fold change at or above -0.0003 is 1, below is -1.

Check out these entries, answers already filled in.
[[record]]
sequence_entry = "RRIRERPPRLPRPRPRPARPPRP"
category = 1

[[record]]
sequence_entry = "RRIRWRPPRLPRPRPRPVPVPRP"
category = 1


Item `RRIRKRPPRLPRPRPRPNKRPRP` with shrunken log2 fold change of -0.0003 or above?
-1

Repeat for the following sequence: `RRIRTRPPRLPRPRPRPVPVPRP`
1

Repeat for the following sequence: `RRIRVRPPRLPRPRPRPEVPPRP`
1

Repeat for the following sequence: `RRIRTRPPRLPRPRPRPQIGPRP`
-1

Repeat for the following sequence: `RRIRHRPPRLPRPRPRPKWSPRP`
1

Repeat for the following sequence: `RRIRDRPPRLPRPRPRPATIPRP`
1

Repeat for the following sequence: `RRIRIRPPRLPRPRPRPFCWPRP`
-1

Repeat for the following sequence: `RRIRHRPPRLPRPRPRPAFAPRP`
1

Repeat for the following sequence: `RRIRCRPPRLPRPRPRPVLVPRP`
-1

###

Tested on: Escherichia coli TOP10
ASSAY_DETAILS: shrunken log2 fold change of peptide-encoding DNA abundance (4.5 h post-induction vs induction); higher = less antimicrobial activity (less host growth inhibition)
CONDITION_PARAMETERS: time post-induction: 4.5 h; library: site-saturation at positions 5, 18, 19, 20
EXPERIMENTAL_READOUT: shrunken log2 fold change
# print the numeric value only

[[record]]
sequence_entry = "RRIRWRPPRLPRPRPRPYTAPRP"
number = -0.611


Form: Entry = `RRIRNRPPRLPRPRPRPYRIPRP` | System = Escherichia coli TOP10 | shrunken log2 fold change = ____
-0.115

Repeat for the following sequence: `RRIRERPPRLPRPRPRPGDNPRP`
-0.0779

Repeat for the following sequence: `RRIRRRPPRLPRPRPRPNCNPRP`
-0.0828

Repeat for the following sequence: `RRIRARPPRLPRPRPRPKPWPRP`
0.823

Repeat for the following sequence: `RRIRDRPPRLPRPRPRPRHHPRP`
-0.043

###

Test system: Escherichia coli TOP10
ASSAY_DETAILS: shrunken log2 fold change of peptide-encoding DNA abundance (4.5 h post-induction vs induction); higher = less antimicrobial activity (less host growth inhibition)
CONDITION_PARAMETERS: time post-induction: 4.5 h; library: site-saturation at positions 5, 18, 19, 20
Catalogue of shrunken log2 fold change values
# print the numeric value only

Recorded results for 8 sequences are shown here.
[[record]]
sequence_entry = "RRIRVRPPRLPRPRPRPPWMPRP"
experimental_readout = "shrunken log2 fold change"
number = -0.0435

[[record]]
sequence_entry = "RRIRPRPPRLPRPRPRPNCFPRP"
experimental_readout = "shrunken log2 fold change"
number = -0.0261

[[record]]
sequence_entry = "RRIRRRPPRLPRPRPRPEFNPRP"
experimental_readout = "shrunken log2 fold change"
number = 0.25

[[record]]
sequence_entry = "RRIRVRPPRLPRPRPRPSQFPRP"
experimental_readout = "shrunken log2 fold change"
number = -0.952

[[record]]
sequence_entry = "RRIRLRPPRLPRPRPRPAWVPRP"
experimental_readout = "shrunken log2 fold change"
number = -0.0218

[[record]]
sequence_entry = "RRIRWRPPRLPRPRPRPSRKPRP"
experimental_readout = "shrunken log2 fold change"
number = 0.244

[[record]]
sequence_entry = "RRIRDRPPRLPRPRPRPRRYPRP"
experimental_readout = "shrunken log2 fold change"
number = 0.247

[[record]]
sequence_entry = "RRIRGRPPRLPRPRPRPAQLPRP"
experimental_readout = "shrunken log2 fold change"
number = 0.435


Consider the sequence `RRIRSRPPRLPRPRPRPCDMPRP` and give its measured shrunken log2 fold change.
-0.184

Repeat for the following sequence: `RRIRPRPPRLPRPRPRPQCMPRP`
-0.312

Repeat for the following sequence: `RRIRWRPPRLPRPRPRPICKPRP`
-0.0506

Repeat for the following sequence: `RRIRGRPPRLPRPRPRPKSCPRP`
0.959

###

Tested on: Escherichia coli TOP10;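 also: peptides expressed intracellularly from a pBAD plasmid library in pooled LB shake-flask culture, induced with 0.3% L-arabinose, DNA abundance read by NGS, three biological replicates, DESeq2 with apeglm shrinkage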
ASSAY_DETAILS: shrunken log2 fold change of peptide-encoding DNA abundance (4.5 h post-induction vs induction); higher = less antimicrobial activity (less host growth inhibition)
CONDITION_PARAMETERS: time post-induction: 4.5 h; library: site-saturation at positions 5, 18, 19, 20
Catalogue of shrunken log2 fold change values
# print the numeric value only

Recorded results for 4 sequences are shown here.
[[record]]
sequence_entry = "RRIRSRPPRLPRPRPRPYSEPRP"
experimental_target = "Escherichia coli TOP10"
experimental_readout = "shrunken log2 fold change"
number = -0.561

[[record]]
sequence_entry = "RRIRLRPPRLPRPRPRPDPWPRP"
experimental_target = "Escherichia coli TOP10"
experimental_readout = "shrunken log2 fold change"
number = 0.0779

[[record]]
sequence_entry = "RRIRDRPPRLPRPRPRPVERPRP"
experimental_target = "Escherichia coli TOP10"
experimental_readout = "shrunken log2 fold change"
number = -0.00663

[[record]]
sequence_entry = "RRIRCRPPRLPRPRPRPQMKPRP"
experimental_target = "Escherichia coli TOP10"
experimental_readout = "shrunken log2 fold change"
number = -0.514


--- query ---
Consider the sequence `RRIRDRPPRLPRPRPRPGSTPRP` and give its measured shrunken log2 fold change.
0.637
